Origin of values: PubChem BioAssay (NCI)

Recorded measurements of growth, one per entry
# Test system: HCT-15 colon
# EXPERIMENTAL PROTOCOL: NCI-60 one-dose screen, 48 h (100 = growth as untreated, 0 = no growth, -100 = all killed)
# CONDITION: 10 µM
# Experimental: Growth inhibition of the HCT-15 human tumor cell line is measured as a screen for anti-cancer activity. Cells are grown in 96 well plates and exposed to the test compound for 48 hours. Compounds are tested at a single concentration, which is 10^-5 M for most compounds. The reported endpoint is percent growth (GI% or GIPRCNT), where numbers from 0 - 100% represent growth inhibition, and numbers from -100% - 0 represent cell death. For example, a value of 40 represents 60% growth inhibition. […]
This is part of a sample that, as a whole, favours compounds with a hit. Of some 83,000 tested, about 20% had one in any assay. Calls of active or inactive are those of the source. Rule for the calls: active = growth percent below 10; inactive = the rest.

These recorded examples may help you get a feel for the data.
{"columns": ["MOLECULAR STRING", "growth"],
 "data": [
  ["COc1ccc(C(=O)/C=C/c2ccc(OCc3ccc(Cl)cc3)cc2)cc1OC", "92.9% (inactive)"],
  ["CC(=O)/C=C/c1ccc(N(C)Cc2ccc(C(C)(C)C)cc2)cc1", "87.5% (inactive)"],
  ["COc1ccc(C(=O)/C=C/c2ccc(OCc3cccc(C(F)(F)F)c3)c(OC)c2)cc1OC", "73% (inactive)"]
]}

[ask] Data request, read-out growth, for CC(=O)/C=C/c1ccc(OCc2ccc(Cl)cc2)cc1
[reply] 96.7% (inactive)

###

Recorded measurements of growth, one per entry
# System: HT29 colon
# EXPERIMENTAL PROTOCOL: NCI-60 one-dose screen, 48 h (100 = growth as untreated, 0 = no growth, -100 = all killed)
# CONDITION: 10 µM unless noted
This is part of a sample that, as a whole, favours compounds with a hit. Of some 83,000 tested, about 20% had one in any assay. Activity calls are given as the source filed them. How the source made its calls: active means growth percent below 10; inactive means the rest.

{"columns": ["COMPOUND", "growth"],
 "data": [
  ["COc1ccc(-c2cc(-c3cc(OC)c(OC)c(OC)c3)c(C#N)c(=O)n2CCCCC(=O)O)cc1", "99.4% (inactive)"],
  ["COc1cc(/C=C(/c2ccccc2)[N+](=O)[O-])c(OC)c2c1OCO2", "1.28% (active)"],
  ["Cn1cc(C2=C(c3cccc4ccccc34)C(=O)NC2=O)c2cc(Br)ccc21", "90.5% (inactive)"],
  ["O=C(Nc1ccc2ccccc2c1)c1cc2ccccc2cc1O", "98.9% (inactive)"],
  ["O=C(/C=C/c1ccc([N+](=O)[O-])cc1)c1ccccc1", "50.7% (inactive)"]
]}

[ask] Data request, read-out growth, for CCCCCC#CC1OC23CCCCC2C(C#N)(C(=N)O3)C1(C#N)C#N (stereo not given)
[reply] 88% (inactive)

[ask] Data request, read-out growth, for C=C1CCC2C3(C)COC(c4ccc(NC(C)=O)cc4)OC3CCC2(C)C1C/C=C1/C(=O)OCC1O (stereo not given)
[reply] 52.2% (inactive)

[ask] Data request, read-out growth, for CCN(CC)CCCN1C(=O)c2c(c(C)c3c(oc4cc(OC)ccc43)c2C)C1=O
[reply] 86.9% (inactive)

###

# System: SK-MEL-28 melanoma
# EXPERIMENTAL PROTOCOL: NCI-60 one-dose screen, 48 h (100 = growth as untreated, 0 = no growth, -100 = all killed)
# CONDITION: 10 µM unless noted
The panel holds about 83,000 compounds, 20% with a hit somewhere; the sample as a whole holds those more often.
ASSAY ENDPOINT: growth (%)
All answers are understood in %, so give the number only.

These recorded examples may help you get a feel for the data.
{"columns": ["MOLECULAR STRING", "VALUE UNITS", "growth"],
 "data": [
  ["Cc1c(C(C)(C)O)cn2ncnc(Oc3ccc(NC(=O)Nc4ccc(Cl)c(C(F)(F)F)c4)cc3)c12", "%", 53.1],
  ["COC(=O)/C=C1/SC(=Nc2ccc([N+](=O)[O-])cc2)N(CCc2c[nH]c3ccccc23)C1=O", "%", 76.8],
  ["O=C(Cn1cc(CN2CCN(c3ccnc4cc(Cl)ccc34)CC2)nn1)Nc1cccc([N+](=O)[O-])c1", "%", 104],
  ["COc1cc(-c2nc3occn3c2-c2ccnc(NCCCNS(=O)(=O)c3ccc(O)cc3)n2)ccc1F", "%", 27.7],
  ["O=C(NCc1ccc(Cn2c(=O)sn(-c3ccc(Cl)cc3)c2=O)cc1)OCc1ccc2c(Cl)cc(Cl)c(O)c2n1", "%", 47],
  ["Fc1ccccc1-c1cnn2cc(-c3ccccc3)cnc12", "%", 113],
  ["O=S(=O)(O)c1ccc(N=Nc2ccc(N=Nc3cccc4ccccc34)c(S(=O)(=O)O)c2)cc1", "%", 110],
  ["C=CCOc1ccc(/C=C2\\SC(=S)N(CCc3ccc(O)cc3)C2=O)cc1", "%", 110]
]}

// next entry
[ask] Data request, read-out growth, for OCCN1CCN(c2cc(-c3cccc(OC(F)(F)F)c3)nc3ccc(N4CCCC4)cc23)CC1
[reply] 71.1
